Target: full-length proMMP9(1-707) (SEQ ID NO:1), activation by catalytic MMP3 (Homo sapiens, UniProt P14780, R574P)
Construct: E. coli (MMP3)
Sequence (P14780 20-707 R574P): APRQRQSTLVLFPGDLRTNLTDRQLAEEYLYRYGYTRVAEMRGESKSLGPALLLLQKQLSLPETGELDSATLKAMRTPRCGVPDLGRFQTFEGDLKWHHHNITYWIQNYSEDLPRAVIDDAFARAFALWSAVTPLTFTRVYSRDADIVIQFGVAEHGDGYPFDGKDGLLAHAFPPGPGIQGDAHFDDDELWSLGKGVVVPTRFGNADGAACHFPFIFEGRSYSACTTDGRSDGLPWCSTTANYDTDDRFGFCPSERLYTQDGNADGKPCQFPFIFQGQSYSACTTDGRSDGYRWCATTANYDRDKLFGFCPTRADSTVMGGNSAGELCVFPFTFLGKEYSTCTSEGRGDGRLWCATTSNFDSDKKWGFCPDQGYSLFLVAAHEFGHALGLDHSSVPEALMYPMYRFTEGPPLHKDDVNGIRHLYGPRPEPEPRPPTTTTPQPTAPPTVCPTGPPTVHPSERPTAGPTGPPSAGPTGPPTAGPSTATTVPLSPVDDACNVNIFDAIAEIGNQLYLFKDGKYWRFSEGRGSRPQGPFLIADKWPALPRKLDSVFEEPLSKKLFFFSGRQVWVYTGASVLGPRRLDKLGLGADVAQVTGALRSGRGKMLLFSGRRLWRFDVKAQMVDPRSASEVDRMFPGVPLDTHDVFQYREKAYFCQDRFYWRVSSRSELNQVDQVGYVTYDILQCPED
Assay: proMMP9/MMP3 P126 Activation Assay
readoutLabel: IC50

Below are worked cases with known answers.
[
  {
    "molecule": "CCOC(=O)CCNC(=O)c1ccc(-c2csc(Nc3cc(S(N)(=O)=O)ccc3OC(C)C)n2)cn1 [Example 87]",
    "dataValue": "~2 µM"
  },
  {
    "molecule": "COc1ccc(CC(N)=O)cc1Nc1nc(-c2cccnc2)cs1 [Example 5]",
    "dataValue": "~19 µM"
  },
  {
    "molecule": "CC(C)Oc1ccc(S(N)(=O)=O)cc1Nc1nc(-c2ccc(N3CCCCC3)nc2)cs1 [Example 76]",
    "dataValue": "> 20 µM"
  }
]

Read the next record carefully.
Requested field: IC50. Item: Cc1nc(C(F)(F)F)ccc1-c1csc(Nc2cc(C(N)=O)ccc2OC(C)C)n1 [Example 24]
~3 µM
